test system: 217524-143-R1-J4-PDC spheroids with HUVEC/MSC, viability; assay: Anticancer human tumor 217524-143-R1-J4-PDC patient-derived pancreatic carcinoma cell line growth inhibition [CLK]; settings: second compound 10 µM; first compound 0.03 µM; stronger effect = lower value
Reported viability, T/C by item:
reported.metric: viability, T/C

compound: NC(=O)C(=Cn1cnc(-c2cc(C(F)(F)F)cc(C(F)(F)F)c2)n1)c1cncnc1 + CNC(=O)c1ccc(Nc2nc(OC3CCCC3)c3c(-c4ccc5nc(C)oc5c4)c[nH]c3n2)c(OC)c1
target.or.system: 217524-143-R1-J4-PDC spheroids with HUVEC/MSC, viability
reported.metric: viability, T/C
result: 12%
//
compound: CC(C)CC(NC(=O)C(Cc1ccccc1)NC(=O)c1cnccn1)B(O)O (stereo unspecified) + CN1CCN(c2cc(C(=O)Nc3cc4cc(-c5cnn(C)c5)ccc4cn3)ccn2)CC1
target.or.system: 217524-143-R1-J4-PDC spheroids with HUVEC/MSC, viability
reported.metric: viability, T/C
result: 0.32%
//
compound: CC(C)CC(NC(=O)C(Cc1ccccc1)NC(=O)c1cnccn1)B(O)O (stereo unspecified) + CNC(=O)c1ccc(Nc2nc(OC3CCCC3)c3c(-c4ccc5nc(C)oc5c4)c[nH]c3n2)c(OC)c1
target.or.system: 217524-143-R1-J4-PDC spheroids with HUVEC/MSC, viability;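 also: spheroids exposed to agents for seven days before reading; 100% = DMSO vehicle control viability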
reported.metric: viability, T/C
result: 2.66%
//
compound: C=CC(=O)Nc1cc(Nc2nccc(-c3cn(C)c4ccccc34)n2)c(OC)cc1N(C)CCN(C)C + CN1CCN(c2cc(C(=O)Nc3cc4cc(-c5cnn(C)c5)ccc4cn3)ccn2)CC1
target.or.system: 217524-143-R1-J4-PDC spheroids with HUVEC/MSC, viability;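 also: spheroids exposed to agents for seven days before reading; 100% = DMSO vehicle control viability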
reported.metric: viability, T/C
result: 0.26%
//
compound: C=CC(=O)Nc1cc(Nc2nccc(-c3cn(C)c4ccccc34)n2)c(OC)cc1N(C)CCN(C)C + CNC(=O)c1ccc(Nc2nc(OC3CCCC3)c3c(-c4ccc5nc(C)oc5c4)c[nH]c3n2)c(OC)c1
target.or.system: 217524-143-R1-J4-PDC spheroids with HUVEC/MSC, viability;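 also: spheroids exposed to agents for seven days before reading; 100% = DMSO vehicle control viability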
reported.metric: viability, T/C
result: 20.1%
//
compound: NC(=O)C(=Cn1cnc(-c2cc(C(F)(F)F)cc(C(F)(F)F)c2)n1)c1cncnc1 + CN1CCN(c2cc(C(=O)Nc3cc4cc(-c5cnn(C)c5)ccc4cn3)ccn2)CC1
target.or.system: 217524-143-R1-J4-PDC spheroids with HUVEC/MSC, viability;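 also: spheroids exposed to agents for seven days before reading; 100% = DMSO vehicle control viability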
reported.metric: viability, T/C
result: 0.17%
